Sourced from patent US20060014212A1

molecular target: anti-A015 antibody (Thyroglobulin PET); test: peptide competition assay in 6% BSA
pIC50: −log10 of the molar value. Where no end group is shown, it is not given here.

{"columns": ["Binder", "pIC50"],
 "data": [
  ["CDFSTPLAHFDLR-NH2 [A015 peptide (Thyroglobulin), …-NH2]", 8.40]
]}
